Values compiled from the OligoGym collection.

details: siRNA; also: test system not given here
HELM strings list units from the 5' end as sugar, base in round brackets, then linkage (d deoxyribose, r ribose, m 2'-O-methyl, p phosphodiester). Strings are as the collection lists them, not checked against the first reports. ss, as = sense and antisense strand; [lna] = locked nucleic acid (LNA)
measured.quantity: target mRNA knockdown
Kindly report the value followed by its unit.

RNA1{r(C)p.r(U)p.r(U)p.r(A)p.r(C)p.r(G)p.r(C)p.r(U)p.r(G)p.r(A)p.r(G)p.r(U)p.r(A)p.r(C)p.r(U)p.r(U)p.r(C)p.r(G)p.r(A)p.d(T)p.d(T)}|RNA2{r(U)p.r(C)p.r(G)p.r(A)p.r(A)p.r(G)p.r(U)p.r(A)p.r(C)p.r(U)p.r(C)p.r(A)p.r(G)p.r(C)p.r(G)p.r(U)p.r(A)p.r(A)p.r(G)p.[lna](T)p.[lna](T)}$$$RNA1{StrandType:ss}|RNA2{StrandType:as}$; 92%

Exam item: Could you share which target mRNA knockdown value was measured for RNA1{r(G)p.r(G)p.r(C)p.r(C)p.r(U)p.r(U)p.r(U)p.r(C)p.r(A)p.r(C)p.r(U)p.r(A)p.r(C)p.r(U)p.r(C)p.r(C)p.r(U)p.r(A)p.r(C)p.d(T)p.d(T)}|RNA2{r(G)p.r(U)p.r(A)p.r(G)p.r(G)p.r(A)p.r(G)p.r(U)p.r(A)p.r(G)p.r(U)p.r(G)p.r(A)p.r(A)p.r(A)p.r(G)p.r(G)p.r(C)p.r(C)p.d(T)p.d(T)}$$$RNA1{StrandType:ss}|RNA2{StrandType:as}$ ?
Marked response: 36%

====

details: siRNA
HELM strings list units from the 5' end as sugar, base in round brackets, then linkage (d deoxyribose, r ribose, m 2'-O-methyl, p phosphodiester). Strings are as the collection lists them, not checked against the first reports. ss, as = sense and antisense strand; [lna] = locked nucleic acid (LNA); [fl2r] = 2'-fluoro
# key: entry, value: target mRNA knockdown
Response body: numeric value in %, unit text excluded.

Reference set (2 entries):
RNA1{r(C)p.r(U)p.r(U)p.r(A)p.r(C)p.r(G)p.r(C)p.r(U)p.r(G)p.r(A)p.r(G)p.r(U)p.r(A)p.r(C)p.r(U)p.r(U)p.r(C)p.r(G)p.r(A)p.r(T)p.r(T)}|RNA2{r(U)p.r(C)p.r(G)p.r(A)p.r(A)p.[lna](G)p.r(U)p.r(A)p.r(C)p.r(U)p.r(C)p.r(A)p.r(G)p.r(C)p.r(G)p.r(U)p.r(A)p.r(A)p.r(G)p.r(T)p.r(T)}$$$RNA1{StrandType:ss}|RNA2{StrandType:as}$; 82
RNA1{r(C)p.r(U)p.r(U)p.r(A)p.r(C)p.r(G)p.r(C)p.r(U)p.r(G)p.r(A)p.r(G)p.r(U)p.r(A)p.r(C)p.r(U)p.r(U)p.r(C)p.r(G)p.r(A)p.r(T)p.r(T)}|RNA2{r(T)p.r(C)p.r(G)p.[lna](A)p.r(A)p.r(G)p.r(U)p.r(A)p.r(C)p.r(U)p.r(C)p.r(A)p.r(G)p.r(C)p.r(G)p.r(U)p.r(A)p.r(A)p.r(G)p.[lna](T)p.[lna](T)}$$$RNA1{StrandType:ss}|RNA2{StrandType:as}$; 91

Now consider a different substance.
Exam item: Recorded target mRNA knockdown of RNA1{r(G)p.r(G)p.r(G)p.r(A)p.r(A)p.r(A)p.[fl2r](C)p.[fl2r](U)p.r(G)p.r(A)p.r(A)p.r(A)p.r(G)p.r(G)p.[fl2r](C)p.[fl2r](U)p.r(A)p.[fl2r](U)p.r(G)p.r(T)p.r(T)}|RNA2{r(C)p.r(A)p.r(U)p.r(A)p.r(G)p.r(C)p.r(C)p.r(U)p.r(U)p.r(U)p.r(C)p.r(A)p.r(G)p.r(U)p.r(U)p.r(U)p.r(C)p.r(C)p.r(C)p.r(T)p.r(T)}$$$RNA1{StrandType:ss}|RNA2{StrandType:as}$ , please.
Marked response: 51
